pIC50: −log10 of the molar value.
Consider compounds characterized by their pIC50 with Serine/threonine-protein kinase ATR (Homo sapiens).
Sequence (Q13535 whole entry): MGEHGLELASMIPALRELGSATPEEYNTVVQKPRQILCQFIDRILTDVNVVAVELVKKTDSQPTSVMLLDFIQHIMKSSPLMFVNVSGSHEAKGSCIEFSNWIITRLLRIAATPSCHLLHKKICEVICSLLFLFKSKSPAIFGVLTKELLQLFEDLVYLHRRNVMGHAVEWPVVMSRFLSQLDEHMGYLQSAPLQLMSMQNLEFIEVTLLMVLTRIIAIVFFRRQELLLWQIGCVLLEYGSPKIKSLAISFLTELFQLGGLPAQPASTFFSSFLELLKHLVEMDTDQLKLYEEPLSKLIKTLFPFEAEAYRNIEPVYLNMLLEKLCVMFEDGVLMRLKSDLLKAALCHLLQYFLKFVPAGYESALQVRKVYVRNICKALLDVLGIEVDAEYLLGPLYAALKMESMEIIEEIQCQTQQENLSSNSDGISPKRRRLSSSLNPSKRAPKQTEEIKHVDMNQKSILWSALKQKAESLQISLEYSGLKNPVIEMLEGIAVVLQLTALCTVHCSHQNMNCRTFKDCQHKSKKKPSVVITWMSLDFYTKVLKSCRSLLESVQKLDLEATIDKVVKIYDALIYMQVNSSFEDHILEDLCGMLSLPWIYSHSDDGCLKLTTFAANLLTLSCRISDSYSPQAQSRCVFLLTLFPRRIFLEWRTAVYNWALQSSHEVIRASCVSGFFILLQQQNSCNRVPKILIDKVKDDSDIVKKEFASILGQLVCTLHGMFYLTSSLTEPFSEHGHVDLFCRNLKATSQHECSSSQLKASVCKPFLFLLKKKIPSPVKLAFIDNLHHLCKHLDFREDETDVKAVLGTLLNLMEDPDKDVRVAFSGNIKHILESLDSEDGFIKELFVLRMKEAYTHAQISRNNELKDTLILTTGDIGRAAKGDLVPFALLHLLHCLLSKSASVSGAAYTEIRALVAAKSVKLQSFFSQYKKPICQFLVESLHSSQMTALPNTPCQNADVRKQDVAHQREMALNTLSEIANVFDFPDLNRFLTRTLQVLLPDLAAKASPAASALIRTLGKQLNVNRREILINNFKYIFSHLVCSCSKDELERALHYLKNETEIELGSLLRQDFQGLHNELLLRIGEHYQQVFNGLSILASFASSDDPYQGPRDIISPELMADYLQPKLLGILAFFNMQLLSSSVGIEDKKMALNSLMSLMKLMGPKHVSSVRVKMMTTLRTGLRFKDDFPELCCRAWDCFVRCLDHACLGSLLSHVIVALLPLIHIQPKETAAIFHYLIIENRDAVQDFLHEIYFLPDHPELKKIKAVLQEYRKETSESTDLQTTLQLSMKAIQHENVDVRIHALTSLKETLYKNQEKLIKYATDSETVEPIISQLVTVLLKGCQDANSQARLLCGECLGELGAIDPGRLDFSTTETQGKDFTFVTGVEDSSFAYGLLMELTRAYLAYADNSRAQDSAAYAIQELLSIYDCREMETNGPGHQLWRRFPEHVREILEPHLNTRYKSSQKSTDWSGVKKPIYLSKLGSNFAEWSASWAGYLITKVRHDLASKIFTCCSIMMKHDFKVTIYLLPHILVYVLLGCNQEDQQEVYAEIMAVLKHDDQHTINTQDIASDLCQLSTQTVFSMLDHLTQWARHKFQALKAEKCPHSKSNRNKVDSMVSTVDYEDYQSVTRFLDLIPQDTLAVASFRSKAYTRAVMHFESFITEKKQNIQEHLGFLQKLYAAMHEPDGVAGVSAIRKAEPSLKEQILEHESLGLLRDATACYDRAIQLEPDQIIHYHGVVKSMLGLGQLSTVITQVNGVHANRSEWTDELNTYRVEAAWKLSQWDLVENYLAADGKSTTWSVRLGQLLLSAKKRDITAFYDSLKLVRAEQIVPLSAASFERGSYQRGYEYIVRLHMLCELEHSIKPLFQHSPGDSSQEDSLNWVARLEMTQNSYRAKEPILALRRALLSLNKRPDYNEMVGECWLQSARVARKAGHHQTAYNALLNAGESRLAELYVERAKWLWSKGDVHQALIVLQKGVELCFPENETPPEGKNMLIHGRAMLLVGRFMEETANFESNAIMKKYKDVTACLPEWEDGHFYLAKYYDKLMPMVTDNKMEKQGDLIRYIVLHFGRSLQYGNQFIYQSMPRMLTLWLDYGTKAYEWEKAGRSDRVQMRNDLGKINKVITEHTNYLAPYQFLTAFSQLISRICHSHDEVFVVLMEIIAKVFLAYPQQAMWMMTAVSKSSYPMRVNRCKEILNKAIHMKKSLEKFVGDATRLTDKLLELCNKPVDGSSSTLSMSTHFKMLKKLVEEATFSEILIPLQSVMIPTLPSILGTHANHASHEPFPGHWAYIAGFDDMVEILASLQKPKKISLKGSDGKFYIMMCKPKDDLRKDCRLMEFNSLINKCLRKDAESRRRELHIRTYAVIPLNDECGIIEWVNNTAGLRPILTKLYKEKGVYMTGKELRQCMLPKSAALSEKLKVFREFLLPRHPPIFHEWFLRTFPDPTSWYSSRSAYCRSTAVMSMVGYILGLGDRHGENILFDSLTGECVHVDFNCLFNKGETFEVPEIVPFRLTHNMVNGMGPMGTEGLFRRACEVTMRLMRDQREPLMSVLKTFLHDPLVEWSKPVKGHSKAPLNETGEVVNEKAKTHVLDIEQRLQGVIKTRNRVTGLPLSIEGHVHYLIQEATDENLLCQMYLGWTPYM
recorded.endpoint: pIC50

1: Cc1n[nH]c(C)c1-c1cc(N2CCOC[C@H]2C)nc(-c2ccnc3c2ccn3CC2CNC2)n1 [US12544382, Example A27]
2: CNc1nc2cc(Cl)ccc2n1-c1nc(-c2c(C)nn(C3CCNCC3)c2C(F)(F)F)cc(N2CCOC[C@H]2C)n1 [US12544382, Example D25]
Parameter metric = pIC50. Return the lower-valued option from 1 and 2 . Identify your pick by its label. 2
(2: 7.08, 1: 7.33)
